Provide the reported melting point of each item.

melting point reported for this molecule COc1ccnc(C(=O)N[C@H]2COC(=O)[C@H](CC3CCCCC3)[C@@H](OC(=O)C(C)C)[C@H](C)OC2=O)c1OCOC(=O)C(C)C [Compound 27] : 117 to 119 °C

Note to self: melting point recorded for COc1ccnc(C(=O)N[C@H]2COC(=O)[C@H](Cc3cccnc3)[C@@H](OC(=O)C(C)C)[C@H](C)OC2=O)c1O [Compound 2] was 148 to 155 °C

The recorded melting point for COc1ccnc(C(=O)N[C@H]2COC(=O)[C@H](Cc3ccccn3)[C@@H](OC(=O)C(C)C)[C@H](C)OC2=O)c1O [Compound 3] is 92 to 95 °C

----------
Test system: Puccinia triticina. Synonym: Puccinia recondite f. sp. tritici
Assay: Fungicidal activity: Wheat Brown Rust (PUCCRT), wheat plants variety Yuma
Assay type: in vivo
Set-up: key: A: 50-100; B: More than 0-Less than 50; C: Not Tested; D: No activity noticed in this bioassay
Conditions: 100 ppm, 3 Day Curative
Method: Evaluation of Fungicidal Activity: Wheat Brown Rust (Puccinia triticina. Synonym: Puccinia recondite f. sp. tritici; Bayer Code PUCCRT) Wheat plants (variety Yuma) were grown from seed in a greenhouse in 50% mineral soil/50% soil-less Metro mix until the first leaf was fully emerged, with 7-10 seedlings per pot. These plants were inoculated with an aqueous spore suspension of Puccinia recondite f. sp. tritici either prior to or after fungicide treatments. […]

{"columns": ["smiles_repr", "PUCCRT 3DC Disease Control"],
 "data": [
  ["COc1ccnc(C(=O)N[C@H]2COC(=O)[C@H](Cc3ccc(C(F)(F)F)cc3)[C@@H](OC(=O)C(C)C)[C@H](C)OC2=O)c1O", "D"],
  ["CCCC/C=C/C[C@H]1C(=O)OC[C@H](NC(=O)c2nccc(OC)c2O)C(=O)O[C@@H](C)[C@@H]1OC(=O)C(C)C", "D"],
  ["COc1ccnc(C(=O)N[C@H]2COC(=O)[C@H](CC(=O)Oc3ccccc3)[C@@H](OC(=O)C(C)C)[C@H](C)OC2=O)c1O", "D"]
]}

----------
For each of the compounds below, state its melting point.

Lab note: COc1ccnc(C(=O)N[C@H]2COC(=O)[C@H](Cc3cncnc3)[C@@H](OC(=O)C(C)C)[C@H](C)OC2=O)c1O gave melting point of 169 to 175 °C

Sample CC[C@H]1C(=O)OC[C@H](NC(=O)c2nccc(OC)c2O)C(=O)O[C@@H](C)[C@@H]1OC(=O)C(C)C ; melting point observed: 193 to 195 °C

Consider COc1ccnc(C(=O)N[C@H]2COC(=O)[C@H](Cc3cccnc3)[C@@H](OC(=O)C(C)C)[C@H](C)OC2=O)c1OCOC(=O)C(C)C . Its measured melting point is 171 to 174 °C

Value of measured melting point for the entry COc1ccnc(C(=O)N[C@H]2COC(=O)[C@H](CC(=O)OC(C)(C)C)[C@@H](OC(=O)C(C)C)[C@H](C)OC2=O)c1O : 192 to 194 °C

Noted for COc1ccnc(C(=O)N[C@H]2COC(=O)[C@H](CSc3ccccn3)[C@@H](OC(=O)C(C)C)[C@H](C)OC2=O)c1O : its melting point reads 148 to 150 °C

The recorded melting point for entry COc1ccnc(C(=O)N[C@H]2COC(=O)[C@H](CC(=O)Oc3ccccc3)[C@@H](OC(=O)C(C)C)[C@H](C)OC2=O)c1O equals 176 to 178 °C

Input C=CC[C@H]1C(=O)OC[C@H](NC(=O)c2nccc(OC)c2O)C(=O)O[C@@H](C)[C@@H]1OC(=O)C(C)C . Output melting point: 161 to 165 °C

The recorded melting point for CCC[C@H]1C(=O)OC[C@H](NC(=O)c2nccc(OC)c2O)C(=O)O[C@@H](C)[C@@H]1OC(=O)C(C)C is 165 to 168 °C

Value of melting point reported for the compound COc1ccnc(C(=O)N[C@H]2COC(=O)[C@H](CCn3cc(-c4ccccc4)nn3)[C@@H](OC(=O)C(C)C)[C@H](C)OC2=O)c1O is 222 to 224 °C

Given item COc1ccnc(C(=O)N[C@H]2COC(=O)[C@H](CC3CCCCC3)[C@@H](OC(=O)C(C)C)[C@H](C)OC2=O)c1OC(C)=O , the value recorded as its melting point is 164 to 170 °C

Quick note, melting point for CCOCC[C@H]1C(=O)OC[C@H](NC(=O)c2nccc(OC)c2O)C(=O)O[C@@H](C)[C@@H]1OC(=O)C(C)C landed at 134 to 136 °C

Entry COc1ccnc(C(=O)N[C@H]2COC(=O)[C@H](CC(F)F)[C@@H](OC(=O)C(C)C)[C@H](C)OC2=O)c1O , melting point reported as 195 to 196 °C

melting point reported for this compound COC(=O)C[C@H]1C(=O)OC[C@H](NC(=O)c2nccc(OC)c2O)C(=O)O[C@@H](C)[C@@H]1OC(=O)C(C)C : 138 to 140 °C

----------
observed_property: melting point

The compound listed as COc1ccnc(C(=O)N[C@H]2COC(=O)[C@H](CCOC(=O)C3CC3)[C@@H](OC(=O)C(C)C)[C@H](C)OC2=O)c1O [Compound 38] has a reported melting point of 157 to 159 °C

Reported melting point of CCCC/C=C/C[C@H]1C(=O)OC[C@H](NC(=O)c2nccc(OC)c2O)C(=O)O[C@@H](C)[C@@H]1OC(=O)C(C)C [Compound 18] : 146 to 148 °C

So, COc1ccnc(C(=O)N[C@H]2COC(=O)[C@H](Cc3ccc(C)cc3)[C@@H](OC(=O)C(C)C)[C@H](C)OC2=O)c1OCOC(=O)C(C)C [Compound 22] ? Its melting point was 131 to 133 °C
